Hello, the source for this data is patent US7329652B2, in case you need it.

- target-or-test-system: JAK-2 enzyme (Homo sapiens, UniProt O60674)
- Sequence (O60674 whole entry, species assumed): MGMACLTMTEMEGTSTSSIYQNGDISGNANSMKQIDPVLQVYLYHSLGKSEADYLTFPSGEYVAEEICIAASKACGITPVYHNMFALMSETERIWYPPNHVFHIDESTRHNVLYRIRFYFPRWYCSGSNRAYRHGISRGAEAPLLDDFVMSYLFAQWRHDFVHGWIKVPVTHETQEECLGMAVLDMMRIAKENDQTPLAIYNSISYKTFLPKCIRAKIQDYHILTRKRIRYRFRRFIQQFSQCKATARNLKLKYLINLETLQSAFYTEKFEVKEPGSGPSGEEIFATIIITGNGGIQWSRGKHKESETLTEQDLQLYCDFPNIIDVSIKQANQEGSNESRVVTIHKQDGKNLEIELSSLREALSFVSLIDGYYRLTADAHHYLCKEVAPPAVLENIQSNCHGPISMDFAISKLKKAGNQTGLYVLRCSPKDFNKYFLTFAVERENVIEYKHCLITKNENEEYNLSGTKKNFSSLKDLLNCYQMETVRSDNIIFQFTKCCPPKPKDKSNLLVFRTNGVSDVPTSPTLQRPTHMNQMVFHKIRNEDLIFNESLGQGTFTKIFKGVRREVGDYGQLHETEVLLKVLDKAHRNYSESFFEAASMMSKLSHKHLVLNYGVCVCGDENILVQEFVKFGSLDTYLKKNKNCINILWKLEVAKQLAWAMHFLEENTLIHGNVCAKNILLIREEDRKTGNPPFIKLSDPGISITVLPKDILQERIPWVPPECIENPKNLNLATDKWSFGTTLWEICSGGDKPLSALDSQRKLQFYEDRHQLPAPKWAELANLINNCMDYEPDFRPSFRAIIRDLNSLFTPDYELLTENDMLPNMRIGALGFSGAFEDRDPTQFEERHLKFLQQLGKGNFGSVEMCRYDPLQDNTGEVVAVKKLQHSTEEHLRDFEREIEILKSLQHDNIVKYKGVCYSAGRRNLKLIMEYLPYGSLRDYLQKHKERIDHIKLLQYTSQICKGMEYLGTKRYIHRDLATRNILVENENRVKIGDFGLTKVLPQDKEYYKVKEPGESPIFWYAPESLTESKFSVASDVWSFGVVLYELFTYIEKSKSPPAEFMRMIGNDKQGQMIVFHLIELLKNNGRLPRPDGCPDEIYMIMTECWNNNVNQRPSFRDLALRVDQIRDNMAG
- test-description: JAK2 inhibition assay (radiometric 33P filter assay)
- Type: biochemical
- protocol-conditions: 15 μM poly(Glu)4Tyr, 12 μM ATP; read-out: JAK2 inhibition data (Ki)

molecule: CC(=O)N1CCCN(c2cc(-n3nc(Nc4ccc(NC(=O)Oc5ccc(C)cc5)cc4)nc3N)ncn2)CC1 [Compound 96]
Ki: < 50 nM

molecule: CC(=O)N1CCCN(c2cc(-n3nc(Nc4ccc(NC(=O)c5ccoc5)cc4)nc3N)ncn2)CC1 [Compound 29]
Ki: < 50 nM

molecule: CC(=O)N1CCCN(c2cc(-n3nc(Nc4ccc(N5CCOCC5)cc4)nc3N)ccn2)CC1 [Compound 1]
Ki: 50 to 500 nM

molecule: CNc1ccc(Nc2nc(N)n(-c3cc(N4CCCN(C(C)=O)CC4)ncn3)n2)cc1 [Compound 117]
Ki: < 50 nM

molecule: CC(=O)N1CCCN(c2cc(-n3nc(Nc4ccc(N5CCN(C(=O)C(C)(C)C)CC5)cc4)nc3N)ncn2)CC1 [Compound 36]
Ki: < 50 nM

molecule: CC(=O)N1CCCN(c2cc(-n3nc(Nc4ccc(N5CCN(C(=O)C(C)C)CC5)cc4)nc3N)ncn2)CC1 [Compound 44]
Ki: < 50 nM

molecule: CC(=O)N1CCCN(c2cc(-n3nc(Nc4ccc(N5CCN(C(=O)Oc6ccc(C)cc6)CC5)cc4)nc3N)ncn2)CC1 [Compound 51]
Ki: < 50 nM
